Test system: M14 melanoma
Assay: NCI tumour cell line growth inhibition, 48 h
Where a SMILES comes first, the peptide text is derived from it. The star is where a group is joined. Boc = CC(C)(C)OC(=O)*; OBn = c1ccc(CO*)cc1
Measured TGI, listed per entry.

COc1cc(/C=C2/C(=O)N=C(NC(C)=O)N2C)ccc1OC(C)=O
> 100 µM
CN1CCN(CCCOc2ccc3nc(Nc4ccc(C(F)(F)F)c(Cl)c4)ccc3c2)CC1
3.32 µM
C(=C\c1nc2ccccc2s1)/c1ccc(N2CCOCC2)s1
> 100 µM
COc1ccc2c([nH]c3cc(O)c(C)cc32)c1CC=C(C)C
9.29 µM
COC(=O)c1cc(NC(=O)CN(CCN(CC(=O)O)CC(=O)Nc2ccc(O)c(C(=O)OC)c2)CC(=O)O)ccc1O
> 100 µM
CC(=O)OCc1c(C)c2ccccc2n1C(C)=O
> 100 µM
CCOc1ccc(N=Nc2c(-c3ccccc3)nn(C(=O)CC(=O)Nc3cccc(C)c3)c2-c2ccccc2)cc1
> 100 µM
N#CC(C#N)=Cc1ccc(Oc2ccccc2)cc1
47.2 µM

Recorded TGI for CC(C)C(NC(=O)CNC(=O)C1CCCN1C(=O)C(NC(=O)OC(C)(C)C)C(C)C)C(=O)NCC(=O)OCc1ccccc1 (centres undefined) (Boc-VPGVG-OBn; configuration not given here) with M14 melanoma, please? > 100 µM

* * *

Entries annotated with measured GI50
System: A498 renal
Assay: NCI tumour cell line growth inhibition, 48 h

O=C(Nc1ccc(Cl)cc1F)c1cc(Cl)ccc1O
0.26 µM

Which GI50 value belongs to CNc1ccc(C(=O)CC(O)CCC(C)C2OC(=O)CC(O)CC(=O)CC(O)CC(O)CC(O)CC(O)CC3(O)CC(O)C(C(=O)NCCc4ccccn4)C(CC(OC4OC(C)C(O)C(N)C4O)/C=C/C=C/C=C/C=C\C=C/C=C/C=C/C2C)O3)cc1 (centres undefined) ? 0.136 µM

Tell me the measured GI50 of `N=C(N)c1ccc(-c2ccc(-c3ccc(Cl)c(Cl)c3)o2)nc1` , please. 9.98 µM

Bench note: what GI50 did `CCc1cccc(CC)c1NC(=O)c1ccn2c1CCc1cnc(Nc3ccc(N4CCN(C)CC4)cc3OC)nc1-2` show? 10.9 µM

* * *

In this section, each of the compounds is paired with its reported TGI.
Test system: COLO 205 colon
Test: NCI tumour cell line growth inhibition, 48 h
Please give a number only; it is taken to be in µM.

Cc1ccc(C(CC(=O)c2ccccc2)C(C(=O)c2ccccc2)C(c2ccc(C)cc2)C2C(=O)NC(=S)NC2=O)cc1 (stereo not given)
24.5
CN1CCN(CCCOc2ccc3nc(Nc4ccc(C(F)(F)F)c(Cl)c4)ccc3c2)CC1
3.49
Cc1cc(=O)[nH]c(NN2C(Cl)C(=O)C2c2c(O)ccc3ccccc23)n1 (stereo not given)
58.2

Next, consider the following compound.
Look up TGI for this compound: `O=C1C=C(NCCc2cc(Cl)c(O)c(Cl)c2)C(=O)c2[nH]cnc21` 52.7

* * *

Reported values of TGI for individual entries
System: HCC-2998 colon
Assay: NCI tumour cell line growth inhibition, 48 h
Entry rule: numbers only, all in µM.

Below: 5 compounds and their reported TGI.
O=C1C(Cl)=C(Nc2ccccn2)C(=O)c2ccccc21
33.7
C=CCCC(O)c1ccc(CCCCCCCCCCC)o1 (stereo unspecified)
36.5
Cc1ccc(C(=O)c2[nH]c(Nc3ccc(Cl)cc3)c(C(=S)Nc3ccccc3)c2N)cc1
5.31
Nc1nc(Cl)nc2c1ncn2C1CCC(COP(=O)(O)OP(=O)(O)OP(=O)(O)O)O1 (stereo unspecified)
86.1
NS(=O)(=O)c1ccc(N=Nc2nc3[nH]cnc(=S)c3[nH]2)cc1
2.83

Proceed to the following item.
Tell me reported TGI for `COc1ccc2c([nH]c3cc(O)c(C)cc32)c1CC=C(C)C` , tested with HCC-2998 colon. 14.5

* * *

Below, each entry is listed with its recorded TGI.
Tested on: NCI-H226 lung
Experiment: NCI tumour cell line growth inhibition, 48 h
Value expressed in µM; do not type the unit.

// below: answered compounds
Cc1n(CC(C)C)c2c([n+]1CC(=O)c1ccc([N+](=O)[O-])cc1)C(=O)c1ccccc1C2=O
0.0523
CC#CC(=O)N[C@H]1CCCN(c2c(F)cc(C(N)=O)c3[nH]c(C)c(C)c23)C1
51.6

Which TGI is reported with NCI-H226 lung for this entry: Cc1csc(-c2ccc3c(c2)COC3(CCCN(C)C)c2ccc(F)cc2)c1 (configuration not stated) ? 3.76

* * *

Tested on: COLO 205 colon
Experiment: NCI tumour cell line growth inhibition, 48 h
Measured parameter: GI50

CC(C)NCCCCCNc1cc(O)cc2cccnc12
1880 nM
C[CH2][Sn]([Cl])([CH2]C)[CH2]C
1480 nM
O=C(OC(CNc1c(C(=O)c2ccccc2)c(=O)n(Cc2ccccc2)c(=O)n1Cc1ccccc1)CN1CCCCC1)c1ccccc1 (stereo not given)
19600 nM
CS(=O)(=O)c1ccc(-c2[nH]c3ccc(F)cc3c2/C=N/NC(N)=S)cc1
1470 nM
COc1cc(CCNc2nc3cc(N)cc(N)c3nc2-c2ccccc2)cc(OC)c1
1760 nM

Consider the molecule shown here: `CCCCC/C=C\C/C=C/CCCCCCCCNC(=O)Nc1ccc([N+](=O)[O-])cc1` What is its recorded GI50? 15000 nM

// GI50 lookup, key: `O=C1C(Cl)=C(Nc2cccc(O)c2)C(=O)N1c1ccc(Cl)cc1Cl` 28200 nM

// returns reported GI50 for input `COc1ccc(C(=O)c2cc(OC)c(OC)c(OC)c2)cc1/C=C/C(=O)c1ccc2c(c1)OCO2` 3510 nM

For `CCc1cccc(CC)c1NC(=O)c1ccn2c1CCc1cnc(Nc3ccc(N4CCN(C)CC4)cc3OC)nc1-2` , what is its reported GI50? 23.1 nM

Name the recorded GI50 for COCO[C@@H]1CC2C=Nc3cc(OCc4ccccc4)c(OC)cc3C(=O)N2C1 (stereo not given in full) . 181 nM

* * *

System: OVCAR-3 ovarian
Test: NCI tumour cell line growth inhibition, 48 h
Recorded TGI, one value per entry.
Provide only the numeric value, understood in µM.

Cc1nc2sc(C(=O)Nc3cccc(Cl)c3C)c(N)c2cc1C(=O)c1ccccc1
1.37

Endpoint output: TGI of `CCNC(=O)c1ccc2c(c1)nc(-c1ccc(Cl)cc1)n2-c1cc(C(C)(C)C)[nH]n1` . Value? 7.77

So what does the record say about TGI for CCOC1=C2C(C)(CCC3[C@@]4(C)C=CC(=O)C(C)(C)C4CC(O)[C@@]23C)C(c2ccoc2)C1=O (stereo partly specified) ? 33.4

Which value of TGI has been reported for `CC(C)N(C(=O)c1ccc(NCc2cc(O)ccc2O)cc1)C(C)C` in the records? 25.1

Any idea what TGI was measured for `COC(=O)CCSC1=CC(=O)c2nc3ccccc3c3ccnc1c23` ? 11.4

Value lookup for TGI; key = `O=C(/C=C/c1ccc(O)cc1)c1cc(O)cc(O)c1` 29.4

* * *

Examples of compounds with documented log10(TGI) follow.
Tested on: SF-539 CNS
Assay: NCI tumour cell line growth inhibition, 48 h
The common logarithm of TGI in µM is what is listed.

C=C(CN(C)C)C(=O)c1ccc(OC)cc1
0.98
CC(C)N(C(=O)c1ccc(NCc2cc(O)ccc2O)cc1)C(C)C
1.53
CCC[CH2][Ge]([CH2]CCC)([CH2]CCC)[O]C(=O)C(OC(C)=O)c1ccccc1 (stereo unspecified)
1.35
Cc1n(-c2ccccc2)c2c([n+]1Cc1ccc([N+](=O)[O-])cc1)C(=O)c1ccccc1C2=O
0.59
C/C=C/C=C\C(=O)C1c2cccc(O)c2C(=O)c2c(O)cc(C)cc21 (stereo unspecified)
0.18
CC(=O)O[C@H]1CC[C@@]2(C)C(=CC[C@H]3[C@@H]4C/C(=C\c5ccncc5)[C@H](OC(C)=O)[C@@]4(C)CC[C@@H]32)C1
1.19

Fill in the blank: the reported log10(TGI) of `O=C(/C=C/c1ccc(O)cc1)c1cc(O)cc(O)c1` is ____. 1.42

Consider the compound C/C=C(\C)C(=O)OC1C2C(C)C(=O)OC2C(O)C(C)C2C=CC(=O)C21C (stereo unspecified) and give its measured log10(TGI). 1.56

Query: log10(TGI); subject: `CCCCCCCCCCNC(=S)OCCCC` 1.68

* * *

Test system: UO-31 renal
Assay: NCI tumour cell line growth inhibition, 48 h
TGI overview
Give just the numeric value; µM need not be written.

Recorded TGI for CC(=O)OC(C#N)CC(C)(C)/[N+]([O-])=[N+](\[O-])C(C)(C)CC(C#N)OC(C)=O (configuration not stated) , please? 63.6

Return reported TGI; argument: `Cc1n(-c2ccccc2)c2c([n+]1Cc1ccc([N+](=O)[O-])cc1)C(=O)c1ccccc1C2=O` 26.6

Name the recorded TGI for `O=C(/C=C/c1cccs1)c1ccc(Cl)s1` . 38.6
